Where these numbers come from: PubChem BioAssay (NCI)

Test system: HS 578T breast
experiment_notes: NCI-60 one-dose screen, 48 h (100 = growth as untreated, 0 = no growth, -100 = all killed)
protocol_conditions: 10 µM unless noted
This is part of a sample that, as a whole, favours compounds with a hit. Of some 83,000 tested, about 20% had one in any assay.
I'd be grateful if you could share measured growth for these entries.
Value expressed in %; do not type the unit.

According to the records, this compound O=C1c2c(O)cc(O)cc2OC(c2ccc(O)c(O)c2)C1O (stereo not drawn) displays growth of 109

According to the records, this compound CN(C)CCCNC1=C(Cl)C(=O)c2ccccc2C1=O displays growth of 9.81

According to the records, this compound O=C(/C=C/c1ccccn1)c1ccccc1O displays growth of 87.2

According to the records, this compound CC1(C)C2CCC1(CS(=O)(=O)O)C(=O)C2 (stereo not drawn) displays growth of 112

According to the records, this compound N#C/C(=C/c1c(O)ccc2ccccc12)C(N)=O displays growth of 113

According to the records, this compound CC(=O)C(/C=N/C(N)=O)=C(/C)O displays growth of 108

According to the records, this compound O=[N+]([O-])c1ccc(/C=N\NC(=S)Nc2ccc(F)cc2)cc1 displays growth of 93.4

According to the records, this compound O=C1NC(=O)C2(CCc3ccccc32)N1 (stereo not drawn) displays growth of 121

According to the records, this compound Cc1n[nH]c(=O)n(/N=C\c2c[nH]c3ccccc23)c1=O displays growth of 108

According to the records, this compound C1CCCCNCCC1 displays growth of 110

According to the records, this compound OCc1ccccn1 displays growth of 106

According to the records, this compound O=[N+]([O-])c1ccc(Oc2ccccc2)cc1 displays growth of 100

According to the records, this compound O=C(O)CSCc1nc2ccccc2[nH]1 displays growth of 102

====

System: T-47D breast
experiment_notes: NCI-60 one-dose screen, 48 h
protocol_conditions: 100 µM
This is part of a sample that, as a whole, favours compounds with a hit. Of some 83,000 tested, about 20% had one in any assay. Active and inactive are the calls of the source. The calls were made as follows: active = growth percent below 10; inactive = the rest.
The reply should be one of these categories: yes (1) = active, no (0) = inactive

Query: Check the results log: what was the call for O=C(O)c1sccc1O ?
Result: no (0)

Query: Check the results log: what was the call for CCc1ccccc1-n1c(N)c(C#N)c(-c2ccc(OC)c(OC)c2)c(C#N)c1=O ?
Result: yes (1)

Query: Check the results log: what was the call for CC#C[C@]1(O)CC[C@H]2[C@@H]3CCC4=CC(=O)CCC4=C3[C@@H](c3ccc4c(c3)OCO4)C[C@@]21C ?
Result: yes (1)

Query: Check the results log: what was the call for Cc1[nH]c(-c2nc3ccccc3[nH]2)c(C)c1C(=O)NC(C)C1CCCCC1 (centres undefined) ?
Result: yes (1)

====

System: K-562 leukemia
experiment_notes: NCI-60 one-dose screen, 48 h
protocol_conditions: 10 µM unless noted
This is part of a sample that, as a whole, favours compounds with a hit. Of some 83,000 tested, about 20% had one in any assay. Calls of active or inactive are those of the source. Rule for the calls: active = growth percent below 10; inactive = the rest.
The reply should be one of these categories: TRUE for active, FALSE for inactive

Query: Check the results log: what was the call for COc1cc(C(=O)N/N=C/c2ccc(N(C)C)cc2)cc(OC)c1OC ?
Result: FALSE

Query: Check the results log: what was the call for CCCCCCCCCCCCCCCc1cc(O)ccc1N ?
Result: FALSE

Query: Check the results log: what was the call for Oc1ccccc1/C=N\NC(=S)N/N=C/c1ccccc1O ?
Result: FALSE

Query: Check the results log: what was the call for Cc1c(Cl)cccc1NCN1C(=O)c2ccccc2C1=O ?
Result: FALSE

Query: Check the results log: what was the call for CCCCCn1sc(=O)n(Cc2ccc(CNC(=O)C(C)c3ccc(CC(C)C)cc3)cc2)c1=O (stereo unspecified) ?
Result: TRUE

Query: Check the results log: what was the call for O=C1OC(Oc2ccc(Br)cc2)(c2ccccc2)c2ccccc21 (stereo unspecified) ?
Result: FALSE
